Target: T1, Dimeric monkey CD48-mFc (monkey)
T1 construct: Soluble monkey CD48 with a C-terminal Fc fusion [mFc]; the whole entry is the construct
T1 chain: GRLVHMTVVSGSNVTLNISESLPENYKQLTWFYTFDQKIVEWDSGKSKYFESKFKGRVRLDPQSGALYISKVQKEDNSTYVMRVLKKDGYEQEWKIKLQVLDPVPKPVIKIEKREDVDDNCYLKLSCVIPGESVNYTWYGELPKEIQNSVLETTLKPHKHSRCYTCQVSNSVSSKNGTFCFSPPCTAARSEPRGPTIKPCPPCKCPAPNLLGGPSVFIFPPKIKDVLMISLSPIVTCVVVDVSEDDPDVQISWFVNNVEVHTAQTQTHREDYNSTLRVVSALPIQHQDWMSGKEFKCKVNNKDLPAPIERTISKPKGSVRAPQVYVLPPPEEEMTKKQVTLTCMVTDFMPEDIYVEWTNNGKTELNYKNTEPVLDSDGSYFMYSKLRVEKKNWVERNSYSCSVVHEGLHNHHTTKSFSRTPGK
Assay: SPR (Biacore), antibody captured by anti-Fc, CD48 in solution, 25 C
Measured kon, listed per entry.
Hi! Could you send only the number? It should be in M⁻¹ s⁻¹, unit omitted.

H4H1774P (antibody, human IgG4, V domains shown, Human IgG4 Fc (H4H)) VH: QVQLVESGGGVVQPGRSLRLSCAASGFTFSNYGMHWVRQAPGKGLEWVAVIWYDESSKYYTDSVKGRFTISRDNSQNTLYLQMTSLRAEDTAVYYCARDRWTYSHYFEYWGQGTLVTVSS VL: DIQMTQSPSSVSASVGDRVTITCRASQGISSWVAWYQQKPGKAPKLLIYAASSLQSGVPSRFSGSGSGTDFTLTISSLQPEDFATYYCQQANSFPRTFGQGTKVEIK ... 395000

// H4H1781P (antibody, human IgG4, V domains shown, Human IgG4 Fc (H4H)) VH: QVQLVESGGGVVQPGRSLRLSCAASGFTFSNYGMHWVRQAPGKGLEWVAVIWYDDSNKNYADSVKGRFTISRDNSKNTLYLQMNSLRVEDTAVYYCARDRWTYSHFFEYWGQGTLVTVSS VL: DIQMTQSPSSVSASVGDRVTITCRASQGISSWLAWYQQKPGKAPNLLIYAASSLQSGVPSRFGGSGSGTDFSLTISGLQPEDFATYYCQQANSFPRTFGQGTKVEIK : kon value = 599000

The reported kon of the binder H4H1713N (antibody, V domains shown, Human IgG4 Fc (H4H)) VH: QVQLVQSGAEVKKPGASVKVSCKASGHTFTNYYIHWVRQAPGQGLEWMGITNPNDGNTRYAQKFQGRISMTWDTSTSTVFMELSSLKSEDTAVYYCAGLRYWFFDLWGRGTPVTVSS VL: DIQMTQSPSSVSASVGDRVTITCRASQDISSWLAWYQQKPGKAPNLLIFAASSLQSGVPSRFSGSGSGTDFTLTISSLQPEDFGTYYCQQTDNFPRTFGQGTKVEIN was 861000

Sure, the documented kon for H4H1770P (antibody, human IgG4, V domains shown, Human IgG4 Fc (H4H)) VH: QVQLVQSGAEVKKPGAAVKVSCKASGYTFTAYGISWVRQAPGQGLEWMGWISAYDGDTNNAQKFQGRVTMTTDTSSSTAYMELRSLGSDDTAVYYCARDRYSSSSGYFDYWGQGTLVTVSS VL: DIQMTQSPSSVSASVGDRVTITCRASQDISSWLAWSQQKPGKAPKALIYAASSLQSGVPSRFSGSGSGTDFTLTISSLQPEDFATYYCQQANSFPYTFGQGTKLEIK is 858000

Record summary for H4H1772P (antibody, human IgG4, V domains shown, Human IgG4 Fc (H4H)) VH: EVQLVESGGGLVQPGGSLRLSCAASGFTFSSYWMSWVRQAPGKGLEWVANIMRDGSEKYYVDSVKGRFTISRDNAKNSLYLQMNSLRGEDTAVYYCARERGFYTNYGNWFDPWGQGTLVTVSS VL: DIVMTQSPLSLTVTPGESASISCRSSQSLLHSYGYNSLDWYLQKPGQSPQFLIYLVSNRASGVPDRFSGSGSGTDFTLKISRVEAEDVGVYYCMQVLQTPYTFGQGTKLEIK : reported kon = 519000
